Listed below: growth values for each entry.
Test system: CCRF-CEM leukemia
Experiment: NCI-60 one-dose screen, 48 h (100 = growth as untreated, 0 = no growth, -100 = all killed)
Settings: 10 µM unless noted
About 83,000 compounds went through this panel and 20% of them were active in at least one assay; those are over-represented in the sample as a whole.

compound	u	growth
CC(=O)CC1CCCC1c1ccc2ccccc2c1 (stereo unspecified)	%	97.6
O=C1C=CC2(NN=C(c3ccccc3)N2c2cccc(Cl)c2)c2cccc(O)c21 (stereo unspecified)	%	70.9
COCc1c(-c2ccc(NC(=O)Nc3cc(C(F)(F)F)ccc3F)c(F)c2)c2c(N)ncnn2c1CN1CCOCC1	%	5.76
COc1ccc2c(CCCC(c3ccccc3)c3ccccc3)c3[n+](cc2c1OC)CCc1cc2c(cc1-3)OCO2	%	5.53
Clc1ccc2c(NCCNc3nc(N4CCCC4)nc4ccccc34)ccnc2c1	%	5.08
Cc1cc(Nc2ncc(Cl)c(Nc3ccccc3S(=O)(=O)C(C)C)n2)c(OC(C)C)cc1C1CCNCC1	%	-47.5
Cc1nc(NC(=O)N2CCC[C@H]2C(N)=O)sc1-c1ccnc(C(C)(C)C(F)(F)F)c1	%	35.9
COC(=O)[C@@H](C)CNS(=O)(=O)N(c1cc(C(F)(F)F)cc(C(F)(F)F)c1)C1CCN(Cc2ccc(F)cc2)CC1	%	56.6
CC(CCCC(=O)O)c1ccoc1 (stereo unspecified)	%	109
COC[C@@H](C)n1c(C2CCOCC2)nc2c1C1C=C(OC)C(c3c(C)noc3C)=CC1N=C2 (stereo partly specified)	%	50.8
CCc1nc2cc(/C=C/C(=O)NO)ccc2c(=O)n1CCc1ccc(F)cc1	%	2.06

meta.source: PubChem BioAssay (NCI)
